biological target: CDK4 (Homo sapiens, UniProt P11802+Q16531); test: CDK4 percentage degradation in Calu-1 cells (Table 6); format: cell-based; design: Cells that express cyclin D1-3 and CDK4/6 proteins were treated with heterobifunctional compounds; endogenous in cells; host or cells: Calu-1; conditions: 40 nM, 16 hours
Sequence (P11802 2-303 limits assumed): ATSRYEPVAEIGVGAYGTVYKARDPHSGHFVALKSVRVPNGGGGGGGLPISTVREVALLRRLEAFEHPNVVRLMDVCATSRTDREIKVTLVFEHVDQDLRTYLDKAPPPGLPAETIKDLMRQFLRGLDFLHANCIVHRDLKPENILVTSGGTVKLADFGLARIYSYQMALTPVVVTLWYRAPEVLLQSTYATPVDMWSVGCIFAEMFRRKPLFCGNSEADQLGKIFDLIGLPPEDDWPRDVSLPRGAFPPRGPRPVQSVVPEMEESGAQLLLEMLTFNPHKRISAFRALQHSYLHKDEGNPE
Sequence (P24385 whole entry partner): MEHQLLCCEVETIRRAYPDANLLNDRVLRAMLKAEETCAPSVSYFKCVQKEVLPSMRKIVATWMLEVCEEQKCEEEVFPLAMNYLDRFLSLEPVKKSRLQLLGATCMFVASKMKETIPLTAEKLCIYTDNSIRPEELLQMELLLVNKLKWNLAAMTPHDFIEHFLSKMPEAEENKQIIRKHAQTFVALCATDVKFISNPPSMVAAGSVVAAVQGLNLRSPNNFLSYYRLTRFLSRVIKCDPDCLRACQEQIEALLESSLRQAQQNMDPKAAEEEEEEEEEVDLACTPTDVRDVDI
Sequence (Q16531 2-1140 limits assumed): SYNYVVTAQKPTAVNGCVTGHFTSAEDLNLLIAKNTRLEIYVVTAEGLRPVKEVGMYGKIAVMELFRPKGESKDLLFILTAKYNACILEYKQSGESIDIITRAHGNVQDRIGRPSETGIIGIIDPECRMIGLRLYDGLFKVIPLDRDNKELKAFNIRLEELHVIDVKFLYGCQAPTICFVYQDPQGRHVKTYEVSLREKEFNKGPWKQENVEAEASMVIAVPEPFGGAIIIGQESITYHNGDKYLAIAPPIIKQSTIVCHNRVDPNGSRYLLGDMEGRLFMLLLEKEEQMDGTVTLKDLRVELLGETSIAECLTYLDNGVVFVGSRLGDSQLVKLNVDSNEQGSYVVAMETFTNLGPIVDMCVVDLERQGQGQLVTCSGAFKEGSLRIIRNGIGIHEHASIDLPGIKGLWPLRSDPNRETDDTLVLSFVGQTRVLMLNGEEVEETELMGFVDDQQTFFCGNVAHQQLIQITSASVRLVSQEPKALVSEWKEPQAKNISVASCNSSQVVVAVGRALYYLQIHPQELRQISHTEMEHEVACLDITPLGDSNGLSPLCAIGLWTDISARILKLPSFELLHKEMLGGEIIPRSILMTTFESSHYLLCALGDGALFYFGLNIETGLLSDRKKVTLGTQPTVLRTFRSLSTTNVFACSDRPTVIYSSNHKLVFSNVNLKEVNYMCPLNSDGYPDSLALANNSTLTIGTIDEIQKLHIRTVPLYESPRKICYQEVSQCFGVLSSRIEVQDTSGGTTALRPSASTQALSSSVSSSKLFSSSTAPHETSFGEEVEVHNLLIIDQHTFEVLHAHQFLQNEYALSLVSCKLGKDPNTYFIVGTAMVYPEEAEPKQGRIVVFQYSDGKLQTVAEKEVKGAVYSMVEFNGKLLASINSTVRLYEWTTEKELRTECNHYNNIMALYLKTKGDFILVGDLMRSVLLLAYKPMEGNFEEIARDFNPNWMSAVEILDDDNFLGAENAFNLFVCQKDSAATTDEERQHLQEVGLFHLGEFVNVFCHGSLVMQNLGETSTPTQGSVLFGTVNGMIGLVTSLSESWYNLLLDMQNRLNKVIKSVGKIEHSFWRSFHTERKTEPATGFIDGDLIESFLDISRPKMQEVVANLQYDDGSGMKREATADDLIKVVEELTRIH
The molecules listed here are annotated with their inhibition at 0.04 µM.

- molecule: "CC(=O)c1c(C)c2cnc(Nc3ccc(N4CCN(C(C)CC(=O)N5CCC(Nc6nc(NC(C)C)ccc6C(=O)Nc6ccc(N(C)C)nn6)CC5)CC4)cn3)nc2n(C2CCCC2)c1=O (centres unmarked)"
  inhibition at 0.04 µM: "< 30%"
- molecule: "CNc1ccc(C(=O)Nc2ccn(C)n2)c(NC2CC3(CC(NC(=O)CN4CCN(c5ccc(Nc6ncc7c(C)c(C(C)=O)c(=O)n(C8CCCC8)c7n6)nc5)CC4)C3)C2)n1 (centres unmarked)"
  inhibition at 0.04 µM: "30 to 50%"
- molecule: "CNc1ccc(C(=O)Nc2ccc(N(C)C)nn2)c(NCCCCn2cc(CN3CCN(c4ccc(Nc5ncc6c(C)c(C(C)=O)c(=O)n(C7CCCC7)c6n5)nc4)CC3)nn2)n1"
  inhibition at 0.04 µM: "50 to 80%"
- molecule: "CC(=O)c1c(C)c2cnc(Nc3ccc(N4CCN(CCC(=O)N5CCC(Nc6nc(NC(C)C)ccc6C(=O)Nc6ccc(N(C)C)nn6)CC5)CC4)cn3)nc2n(C2CCCC2)c1=O"
  inhibition at 0.04 µM: "< 30%"

Please find the next molecule below.
Prompt: Quick one: inhibition at 0.04 µM of CNc1ccc(C(=O)Nc2cccc(C3CC3)n2)c(NC2CC3(C2)CN(C(=O)C2(CN4CCN(c5ccc(Nc6ncc7c(C)c(C(C)=O)c(=O)n(C8CCCC8)c7n6)nc5)CC4)CC2)C3)n1 ?
Response: > 80%

* * *

biological target: CDK4 (Homo sapiens, UniProt P11802+Q16531); assay: CDK4 percentage degradation in Calu-1 cells (Table 6); assay type: cell-based; set-up: Cells that express cyclin D1-3 and CDK4/6 proteins were treated with heterobifunctional compounds; endogenous in cells; host or cells: Calu-1; conditions: 40 nM, 16 hours
Below, each of the compounds is paired with its reported inhibition at 0.04 µM value.

Examples with answers:
- compound: "CC(=O)c1c(C)c2cnc(Nc3ccc(N4CCN(CC(=O)NC5CC6(C5)CC(Nc5nc(NC(C)C)ccc5C(=O)Nc5cc(C)n(C)n5)C6)CC4)cn3)nc2n(C2CCCC2)c1=O (centres unmarked)"
  measured_target: "CDK4 (Homo sapiens, UniProt P11802+Q16531)"
  measured: "< 30%"
- compound: "CNc1ccc(C(=O)Nc2ccc(OC)c(C3CC3)n2)c(NC2CC3(CC(NC(=O)CN4CCN(c5ccc(Nc6ncc7c(C)c(C(C)=O)c(=O)n(C8CCCC8)c7n6)nc5)CC4)C3)C2)n1 (centres unmarked)"
  measured_target: "CDK4 (Homo sapiens, UniProt P11802+Q16531)"
  measured: "30 to 50%"
- compound: "CC(=O)c1c(C)c2cnc(Nc3ccc(N4CCN(CC(=O)NCC5CC(Nc6nc(C(C)C)ccc6C(=O)Nc6cc(C)n(C)n6)C5)CC4)cn3)nc2n(C2CCCC2)c1=O (centres unmarked)"
  measured_target: "CDK4 (Homo sapiens, UniProt P11802+Q16531)"
  measured: "30 to 50%"

Prompt: Query: inhibition at 0.04 µM; subject: CC(=O)c1c(C)c2cnc(Nc3ccc(N4CCN(CC(=O)NC5CC6(C5)CC(Nc5nc(C(F)(F)F)ccc5C(=O)Nc5cccc(C7CC7)n5)C6)CC4)cn3)nc2n(C2CCCC2)c1=O (centres unmarked)
Response: < 30%

Prompt: Using the record for CNc1ccc(C(=O)Nc2ccnn2C)c(NC2CC3(CC(NC(=O)CN4CCN(c5ccc(Nc6ncc7c(C)c(C(C)=O)c(=O)n(C8CCCC8)c7n6)nc5)CC4)C3)C2)n1 (centres unmarked) , report its inhibition at 0.04 µM.
Response: < 30%

* * *

molecular target: CDK4 (Homo sapiens, UniProt P11802+Q16531); assay: CDK4 percentage degradation in Calu-1 cells (Table 6); assay type: cell-based; design: Cells that express cyclin D1-3 and CDK4/6 proteins were treated with heterobifunctional compounds; endogenous in cells; host or cells: Calu-1; settings: 40 nM, 16 hours
quantity_name: inhibition at 0.04 µM

- molecule: "CNc1ccc(C(=O)Nc2cccc(C)n2)c(NC[C@H]2CC[C@H](NC(=O)CN3CCN(c4ccc(Nc5ncc6c(C)c(C(C)=O)c(=O)n(C7CCCC7)c6n5)nc4)CC3)CC2)n1"
  measured: "< 30%"
- molecule: "CNc1ccc(C(=O)Nc2ccc(C)nn2)c(NCCCCCNC(=O)CN2CCN(c3ccc(Nc4ncc5c(C)c(C(C)=O)c(=O)n(C6CCCC6)c5n4)nc3)CC2)n1"
  measured: "< 30%"
- molecule: "CNc1ccc(C(=O)Nc2ccc(N(C)C)nn2)c(NC2CC(CC(=O)N3CCN(c4ccc(Nc5ncc6c(C)c(C(C)=O)c(=O)n(C7CCCC7)c6n5)nc4)CC3)C2)n1 (centres unmarked)"
  measured: "50 to 80%"
- molecule: "CC(=O)c1c(C)c2cnc(Nc3ccc(N4CCN(C5CCN(C(=O)C6CC(Nc7nc(NC(C)C)ccc7C(=O)Nc7ccc(N(C)C)nn7)C6)C5)CC4)cn3)nc2n(C2CCCC2)c1=O (centres unmarked)"
  measured: "< 30%"

Kindly consider the entry below.
Prompt: Kindly state the measured inhibition at 0.04 µM obtained for CNc1ccc(C(=O)Nc2ccc(N(C)C)nn2)c(NC2CC(CC(=O)NCCN3CCN(c4ccc(Nc5ncc6c(C)c(C(C)=O)c(=O)n(C7CCCC7)c6n5)nc4)CC3)C2)n1 (centres unmarked) with CDK4 (Homo sapiens, UniProt P11802+Q16531).
Response: 50 to 80%

* * *

Documented inhibition at 0.2 µM across a set of molecules
molecular target: CDK4 (Homo sapiens, UniProt P11802+Q16531); assay: CDK4 percentage degradation in Calu-1 cells (Table 6); format: cell-based; design: Cells that express cyclin D1-3 and CDK4/6 proteins were treated with heterobifunctional compounds; endogenous in cells; host or cells: Calu-1; settings: 200 nM, 16 hours

Observe how each entry below is paired with its result.
- molecule: "CC(=O)c1c(C)c2cnc(Nc3ccc(N4CCN(CC(=O)NCCC5CC(Nc6cc(Cl)ccc6C(=O)Nc6ccc(C)c(C7CC7)n6)C5)CC4)cn3)nc2n(C2CCCC2)c1=O (stereo not drawn)"
  measured_target: "CDK4 (Homo sapiens, UniProt P11802+Q16531)"
  inhibition at 0.2 µM: "50 to 80%"
- molecule: "CNc1ccc(C(=O)Nc2ccc(N(C)C)nn2)c(NCCCCn2cc(CN3CCN(c4ccc(Nc5ncc6c(C)c(C(C)=O)c(=O)n(C7CCCC7)c6n5)nc4)CC3)nn2)n1"
  measured_target: "CDK4 (Homo sapiens, UniProt P11802+Q16531)"
  inhibition at 0.2 µM: "> 80%"
- molecule: "CNc1ccc(C(=O)Nc2ccc(N(C)C)nn2)c(NC2CN(C(=O)CCCN3CCN(c4ccc(Nc5ncc6c(C)c(C(C)=O)c(=O)n(C7CCCC7)c6n5)nc4)CC3)C2)n1"
  measured_target: "CDK4 (Homo sapiens, UniProt P11802+Q16531)"
  inhibition at 0.2 µM: "30 to 50%"

Prompt: Which inhibition at 0.2 µM value is on record for [2H]C([2H])([2H])Nc1ccc(C(=O)Nc2cc(C)n(C)n2)c(NC2CC3(CC(NC(=O)CN4CCN(c5ccc(Nc6ncc7c(C)c(C(C)=O)c(=O)n(C8CCCC8)c7n6)nc5)CC4)C3)C2)n1 (stereo not drawn) ?
Response: 50 to 80%

Prompt: Look up inhibition at 0.2 µM: CNc1ccc(C(=O)Nc2ccc(N(C)C)nn2)c(NC2CCN(C(=O)C3CC34CCN(c3ccc(Nc5ncc6c(C)c(C(C)=O)c(=O)n(C7CCCC7)c6n5)nc3)CC4)CC2)n1 (stereo not drawn)
Response: < 30%

* * *

Some compounds, each annotated with its measured inhibition at 0.2 µM.
molecular target: CDK4 (Homo sapiens, UniProt P11802+Q16531); test: CDK4 percentage degradation in Calu-1 cells (Table 6); format: cell-based; design: Cells that express cyclin D1-3 and CDK4/6 proteins were treated with heterobifunctional compounds; endogenous in cells; host or cells: Calu-1; settings: 200 nM, 16 hours

Take a look at these entries with their results.
- compound: "CNc1ccc(C(=O)Nc2cccc(N)n2)c(NC2CC3(CC(NC(=O)CN4CCN(c5ccc(Nc6ncc7c(C)c(C(C)=O)c(=O)n(C8CCCC8)c7n6)nc5)CC4)C3)C2)n1 (centres unmarked)"
  measured_target: "CDK4 (Homo sapiens, UniProt P11802+Q16531)"
  inhibition at 0.2 µM: "30 to 50%"
- compound: "CNc1ccc(C(=O)Nc2cn(C)c(C(C)C)n2)c(NC2CC3(CC(NC(=O)CN4CCN(c5ccc(Nc6ncc7c(C)c(C(C)=O)c(=O)n(C8CCCC8)c7n6)nc5)CC4)C3)C2)n1 (centres unmarked)"
  measured_target: "CDK4 (Homo sapiens, UniProt P11802+Q16531)"
  inhibition at 0.2 µM: "50 to 80%"
- compound: "CNc1ccc(C(=O)Nc2ccc(N(C)C)nn2)c(NC(=O)CN2CCN(c3ccc(Nc4ncc5c(C)c(C(C)=O)c(=O)n(C6CCCC6)c5n4)nc3)CC2)n1"
  measured_target: "CDK4 (Homo sapiens, UniProt P11802+Q16531)"
  inhibition at 0.2 µM: "< 30%"
- compound: "CNc1ccc(C(=O)Nc2ccc(N(C)C)nn2)c(NCCCCC(C)NC(=O)CN2CCN(c3ccc(Nc4ncc5c(C)c(C(C)=O)c(=O)n(C6CCCC6)c5n4)nc3)CC2)n1 (centres unmarked)"
  measured_target: "CDK4 (Homo sapiens, UniProt P11802+Q16531)"
  inhibition at 0.2 µM: "> 80%"
- compound: "CC(=O)c1c(C)c2cnc(Nc3ccc(N4CCN(CC5(C(=O)N6CC7(CC(Nc8nc(NC(C)C)ccc8C(=O)Nc8ccc(N(C)C)nn8)C7)C6)CC5)CC4)cn3)nc2n(C2CCCC2)c1=O"
  measured_target: "CDK4 (Homo sapiens, UniProt P11802+Q16531)"
  inhibition at 0.2 µM: "30 to 50%"

Prompt: Can you share its inhibition at 0.2 µM? I mean this compound: CNc1ccc(C(=O)NC2CC3(C2)CC(N(C)C)C3)c(NCCCCCNC(=O)CN2CCN(c3ccc(Nc4ncc5c(C)c(C(C)=O)c(=O)n(C6CCCC6)c5n4)nc3)CC2)n1 (centres unmarked)
Response: < 30%

Prompt: Reported inhibition at 0.2 µM for CNc1ccc(C(=O)Nc2ccc(N(C)C)nn2)c(NC2CC(NC(=O)CCN3CCN(c4ccc(Nc5ncc6c(C)c(C(C)=O)c(=O)n(C7CCCC7)c6n5)nc4)CC3)C2)n1 (centres unmarked) : what is it?
Response: > 80%

Prompt: Reported inhibition at 0.2 µM for [2H]C([2H])([2H])Nc1ccc(C(=O)Nc2cccc(C)n2)c(NC2CC3(CC(NC(=O)CN4CCN(c5ccc(Nc6ncc7c(C)c(C(C)=O)c(=O)n(C8CCCC8)c7n6)nc5)CC4)C3)C2)n1 (centres unmarked) : what is it?
Response: 50 to 80%

Prompt: inhibition at 0.2 µM lookup needed for CNc1ccc(C(=O)Nc2cc(C3CC3)n(C)n2)c(NC2CC3(CC(NC(=O)CN4CCN(c5ccc(Nc6ncc7c(C)c(C(C)=O)c(=O)n(C8CCCC8)c7n6)nc5)CC4)C3)C2)n1 (centres unmarked) , thanks.
Response: 50 to 80%

Prompt: Reported inhibition at 0.2 µM for CNc1ccc(C(=O)Nc2cccc(OC)n2)c(NC2CC3(CC(NC(=O)CN4CCN(c5ccc(Nc6ncc7c(C)c(C(C)=O)c(=O)n(C8CCCC8)c7n6)nc5)CC4)C3)C2)n1 (centres unmarked) : what is it?
Response: > 80%

Prompt: Give the measured inhibition at 0.2 µM of CNc1ccc(C(=O)Nc2ccc3c(cnn3C)n2)c(NCCCCCNC(=O)CN2CCN(c3ccc(Nc4ncc5c(C)c(C(C)=O)c(=O)n(C6CCCC6)c5n4)nc3)CC2)n1 .
Response: < 30%
